Molecular target: STAT3 (Homo sapiens, UniProt P40763)
Sequence (P40763 whole entry): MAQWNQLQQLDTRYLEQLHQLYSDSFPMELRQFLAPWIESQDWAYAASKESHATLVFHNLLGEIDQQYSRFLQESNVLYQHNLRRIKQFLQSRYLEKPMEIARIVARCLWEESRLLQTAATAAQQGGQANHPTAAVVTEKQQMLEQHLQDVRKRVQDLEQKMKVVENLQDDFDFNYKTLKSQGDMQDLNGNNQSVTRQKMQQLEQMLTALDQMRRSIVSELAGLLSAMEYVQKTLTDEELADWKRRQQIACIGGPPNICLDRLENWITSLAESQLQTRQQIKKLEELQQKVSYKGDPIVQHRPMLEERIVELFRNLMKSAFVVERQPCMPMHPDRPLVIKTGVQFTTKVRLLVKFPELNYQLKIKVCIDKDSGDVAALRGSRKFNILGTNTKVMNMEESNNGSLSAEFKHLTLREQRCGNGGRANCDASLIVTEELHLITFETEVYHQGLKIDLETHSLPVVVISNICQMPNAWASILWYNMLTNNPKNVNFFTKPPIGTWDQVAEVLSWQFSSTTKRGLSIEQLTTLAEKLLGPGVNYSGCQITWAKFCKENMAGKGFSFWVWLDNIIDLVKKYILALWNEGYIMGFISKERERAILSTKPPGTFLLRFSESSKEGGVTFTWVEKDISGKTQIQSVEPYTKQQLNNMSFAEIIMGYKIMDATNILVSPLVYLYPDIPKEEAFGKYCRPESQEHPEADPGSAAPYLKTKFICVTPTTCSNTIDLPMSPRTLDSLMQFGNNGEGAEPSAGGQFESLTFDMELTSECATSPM
Assay: Inhibition of Stat3 tyrosine705 phosphorylation in MDA-MB-468 cells
Format: cell-based
Design: host or cells: MDA-MB-468 breast tumor cells
Settings: prodrug in DMSO, 2 h
reported property: inhibition of Tyr705 phosphorylation of Stat3 (potency in words)

1) CCCC[C@H](NC(=O)/C=C(\C)c1ccc(C(F)(F)P(=O)(OCOC(=O)C(C)(C)C)OCOC(=O)C(C)(C)C)cc1)C(=O)N1C[C@H]2CC2[C@H]1C(=O)N[C@@H](CCC(N)=O)[C@@H](C)OCc1ccccc1 (some centres unmarked)	very potent inhibitors
2) C/C(=C\C(=O)N[C@H]1CCc2cccc3c2N(C1=O)[C@H](C(=O)N[C@H](C)CCC(N)=O)C3)c1ccc(C(F)(F)P(=O)(OCOC(=O)C(C)(C)C)OCOC(=O)C(C)(C)C)cc1	very potent inhibitors
